- target under test: GST-RIPK1 (recombinant GST-RIPK1 kinase domain (residues 1-327)) (Homo sapiens, UniProt Q13546)
- Construct: recombinant GST-RIPK1 kinase domain (residues 1-327) enzyme produced from baculovirus-transfected Sf21 cells
- Sequence (Q13546 1-327): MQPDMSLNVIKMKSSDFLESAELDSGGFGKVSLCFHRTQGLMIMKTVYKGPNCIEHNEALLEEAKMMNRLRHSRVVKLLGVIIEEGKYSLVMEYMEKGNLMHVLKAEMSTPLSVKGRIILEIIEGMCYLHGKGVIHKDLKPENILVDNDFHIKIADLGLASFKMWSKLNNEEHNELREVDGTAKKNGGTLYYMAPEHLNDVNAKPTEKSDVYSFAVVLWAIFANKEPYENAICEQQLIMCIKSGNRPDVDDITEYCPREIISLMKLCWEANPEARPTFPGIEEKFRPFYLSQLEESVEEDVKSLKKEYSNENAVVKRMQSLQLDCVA
- assay procedure: RIPK1-ADP-Glo Enzymatic Assay
- reported conditions: ten-point titration, top compound concentration of 100000 nM; 25 nM GST-RIPK1, 300 μM ATP, 3 μM dephosphorylated-MBP; 30 min pre-incubation, 150 min reaction
value kind: EC50 (nM)

| compound | EC50 / nM |
| --- | --- |
| N#Cc1cccc(OC2CC3(C2)O[C@@H]2CC[C@@H](c4cnccn4)N2C3=O)c1 (some centres unmarked) [Example 19.3] | 20 |
| Cc1cccnc1CO[C@H]1C[C@]2(C1)O[C@@H]1CC[C@@H](c3cnccn3)N1C2=O | 664 |

(1) COc1ccc(COC2CC3(C2)OC2CC[C@@H](c4cnccn4)N2C3=O)cn1 (some centres unmarked)
(2) Cn1ccc([C@@H]2CC[C@H]3O[C@]4(C[C@H](Oc5ncnn6cccc56)C4)C(=O)N32)n1
(3) Cn1ccc([C@@H]2CC[C@H]3OC4(CC(Oc5cncc(Cl)c5)C4)C(=O)N32)n1 (some centres unmarked) [Example 20.9]
(4) O=C1N2[C@@H](CC[C@H]2c2cnccn2)O[C@]12C[C@@H](Oc1ccc(F)cc1F)C2
(5) O=C1N2[C@@H](CC[C@H]2c2cnccn2)OC12CC(OCC1CCCC1)C2 (single isomer, unassigned) [Example 23.3]
Ask | Number of compounds to sort: 5. Sort criterion: EC50, ascending. Please list the labels according to the requested order.
Reply | 4, 2, 3, 1, 5

(I) O=C1N2C(CC[C@H]2c2cnccn2)OC12CC(OCc1cccc(Cn3ccnn3)c1)C2 (some centres unmarked) [Example 18.26]
(II) O=C1N2[C@@H](CC[C@H]2c2ccccc2)OC12CC(Oc1ccc3sncc3c1)C2 (some centres unmarked)
(III) O=C1N2[C@@H](CC[C@H]2c2cc(F)cc(F)c2)O[C@]12C[C@H](Oc1cccn3nnnc13)C2
(IV) O=C1N2C(CC[C@H]2c2cnccn2)OC12CC(OCc1cncc(OCCF)c1)C2 (some centres unmarked) [Example 18.27]
Ask | Falling order of EC50, please. Please list the labels according to the requested order.
Reply | III, IV, II, I
(III: 210 nM, IV: 126 nM, II: 83 nM, I: 34 nM)
